Entries and their measured %Inh follow.
# System: PAK7
# Measurement Parameters: concentration: 1 μM, replicates: in singlicate; n = 1;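 note: KINOMEscan kinase panel screen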
Number in %, nothing else.

Below: 3 compounds and their reported %Inh.
>  <Chemical Smiles>
COc1ccc(C)c(Nc2ccnc(Nc3ccc(-c4cnc[nH]4)cc3)n2)c1.Cl

>  <Measurement Unit>
%

>  <%Inh>
0

$$$$
>  <Chemical Smiles>
CSc1ccc(NC2=C(c3ccc(Cl)cc3)C(=O)NC2=O)cc1

>  <Measurement Unit>
%

>  <%Inh>
0

$$$$
>  <Chemical Smiles>
Cn1cc(-c2cnc(N)c3c(-c4ccc5c(c4)CCN5C(=O)Cc4ccccc4)csc23)cn1

>  <Measurement Unit>
%

>  <%Inh>
3

$$$$

Moving on to another compound below.
GET /values?readout=%Inh&item= CN(c1ccc(F)c(NC(=O)c2cccc(OC(C)(C)C#N)c2Cl)c1)c1ccc2nc(NC(=O)C3CC3)sc2n1
0

* * *

# Tested on: LATS2
# Measurement Parameters: concentration: 1 μM, replicates: in singlicate; n = 1
Label scheme for %Inh: lower than 3% is criterion not met, 3% and above is criterion met.

For this compound, is measured %Inh 3% or higher? O=C(Nc1c(F)cccc1F)c1cc(C(=O)c2ccccc2F)c[nH]1 [GSK1326180]
criterion not met

For this compound, is measured %Inh 3% or higher? O=C(Nc1n[nH]c2cc(-c3cccs3)ccc12)C1CC1 [SB-731284]
criterion met

For this compound, is measured %Inh 3% or higher? COc1cccc(CC(=O)N2CCc3cc(-c4cn(C)c5ncnc(N)c45)ccc32)c1 [GSK2608899]
criterion met

* * *

Entries and their measured %Inh follow.
# System: GRK7
# Measurement Parameters: concentration: 1 μM, replicates: in singlicate; n = 1
Number in %, nothing else.

Below: 3 compounds and their reported %Inh.
>  <Compound>
O=C(O)C(F)(F)F.O=c1[nH]ccc2nc(N[C@@H]3CCNC3)nc(Nc3ccc4c(c3)S(=O)(=O)CC4)c12

>  <Recorded Number>
65

$$$$
>  <Compound>
Cc1ccc(-c2ccc3occ(-c4ccc(S(C)=O)cc4)c3c2)nn1 (stereo not shown)

>  <Recorded Number>
0

$$$$
>  <Compound>
CN(c1ccc(NC(=O)Nc2cccc(Cl)c2)cc1)c1ccnc(N)n1.Cl

>  <Recorded Number>
1

$$$$

GET /values?readout=%Inh&item= CN(c1ccc(F)c(NC(=O)c2cccc(OC(C)(C)C#N)c2Cl)c1)c1ccc2nc(NC(=O)C3CC3)sc2n1
21

* * *

# Test system: AKT1
# Measurement Parameters: concentration: 1 μM, replicates: in singlicate; n = 1
Parameter: %Inh
Please format your answer as a value with the unit trailing.

Below: 3 compounds and their reported %Inh.
>  <Compound>
CN(C)CCNS(=O)(=O)c1ccc(-c2ccnc3[nH]ccc23)cc1 [GSK977620]

>  <Parameter>
%Inh

>  <Result>
57%

$$$$
>  <Compound>
Cc1ccc(O)cc1Nc1ccnc2cc(-c3ccc(CN4CCCCC4)o3)ccc12 [GW557777]

>  <Parameter>
%Inh

>  <Result>
0%

$$$$
>  <Compound>
Cc1ccc(NC(=O)c2cccc(N3CCCCC3)c2)cc1-c1ccc(C(=O)NCC2CC2)cc1 [GSK1917008]

>  <Parameter>
%Inh

>  <Result>
0%

$$$$

GET /values?readout=%Inh&item= Cc1ccc(-c2ccc3occ(-c4ccc(S(C)=O)cc4)c3c2)nn1 (centres unmarked)
2%

GET /values?readout=%Inh&item= Fc1cc(Cl)ccc1Nc1ccnc2cc(-c3ccc(CN4CCOCC4)o3)ccc12 [GW560109]
0%

* * *

Entries and their measured %Inh follow.
# Tested on: ERK3
# Construct: gene MAPK6
# Measurement Parameters: concentration: 1 μM, replicates: in singlicate; n = 1
Number in %, nothing else.

Below: 5 compounds and their reported %Inh.
>  <Chemical Smiles>
COc1cc(Nc2ccnc3cc(-c4ccncc4)ccc23)cc(OC)c1OC.Cl

>  <Target Desc>
ERK3

>  <%Inh, %>
5

$$$$
>  <Chemical Smiles>
CN1CCN(Cc2ccc(NC(=O)Nc3ccc(N(C)c4ccnc(Nc5ccc(CS(C)(=O)=O)cc5)n4)cc3)cc2)CC1.Cl

>  <Target Desc>
ERK3

>  <%Inh, %>
0

$$$$
>  <Chemical Smiles>
O=C(Nc1n[nH]c2nc(-c3cccc(O)c3)ccc12)C1CC1

>  <Target Desc>
ERK3

>  <%Inh, %>
0

$$$$
>  <Chemical Smiles>
Cc1ccc(NC(=O)c2cccc(N3CCCCC3)c2)cc1-c1ccc(C(=O)NCC2CC2)cc1

>  <Target Desc>
ERK3

>  <%Inh, %>
100

$$$$
>  <Chemical Smiles>
N#CC1(c2cccc(C(=O)Nc3cccc(Oc4ccc5nc(NC(=O)C6CC6)sc5n4)c3)c2)CC1

>  <Target Desc>
ERK3

>  <%Inh, %>
0

$$$$

GET /values?readout=%Inh&item= CCNC(=O)/C=C/c1n[nH]c2cc(Sc3ccccc3C(=O)NC)ccc12
13

GET /values?readout=%Inh&item= COc1ccc(NC(=O)c2ccoc2)cc1-c1ccc(C(=O)NCC2CC2)cc1
0

GET /values?readout=%Inh&item= Cc1ccc(NC(=O)c2ccnc(N3CCCCC3)c2)cc1-c1ccc(C(=O)NCC2CC2)cc1
0

* * *

Entries and their measured %Inh follow.
# Test system: SNARK
# Construct: gene NUAK2
# Measurement Parameters: concentration: 1 μM, replicates: in singlicate; n = 1
Number in %, nothing else.

>  <Molecule>
COc1ccc(C)c(Nc2ccnc(Nc3ccc(-c4cnc[nH]4)cc3)n2)c1.Cl [GW784041]

>  <%Inh [%]>
0

$$$$

GET /values?readout=%Inh&item= CC(C)c1nc(-c2cccc(NS(=O)(=O)c3c(F)cccc3F)c2)c(-c2ccnc(Nc3ccc(N4CCOCC4)nc3)n2)s1.Cl [GSK1723980]
0

GET /values?readout=%Inh&item= Cn1cc(-c2cnc(N)c3c(-c4ccc5c(c4)CCN5C(=O)Cc4ccccc4)csc23)cn1 [GSK2593074]
12

GET /values?readout=%Inh&item= Cc1ccc(O)cc1Nc1ccnc2cc(-c3ccc(CN4CCCCC4)o3)ccc12 [GW557777]
11

GET /values?readout=%Inh&item= CN(C)CCOc1ccc(-c2cc(-c3ccc(Cl)c(O)c3)c(-c3ccncc3)[nH]2)cc1.Cl.Cl [SB-684387]
9

GET /values?readout=%Inh&item= COc1cccc(NC(=O)NCCNc2ccnc(Nc3ccc(F)cc3)n2)c1 [GSK1379879]
0

GET /values?readout=%Inh&item= Cc1ccc(O)cc1Nc1ccnc2ccc(C(C)(C)C)cc12 [GW856805]
19

GET /values?readout=%Inh&item= Cc1ccc(NC(=O)c2ccc(Cl)c(Cl)c2)cc1-c1ccc(C(=O)Nc2ccncc2)cc1 [GSK1398460]
9

* * *

# System: PIK3C2G
# Measurement Parameters: concentration: 1 μM, replicates: in singlicate; n = 1
Entries and their measured %Inh follow.
Number in %, nothing else.

Below: 3 compounds and their reported %Inh.
>  <Chemical Smiles>
Cc1ccc(NC(=O)c2ccc(Cl)c(Cl)c2)cc1-c1ccc(C(=O)Nc2ccncc2)cc1

>  <Measurement Unit>
%

>  <%Inh>
0

$$$$
>  <Chemical Smiles>
CN(c1ccc(NC(=O)Nc2cccc(Cl)c2)cc1)c1ccnc(N)n1.Cl

>  <Measurement Unit>
%

>  <%Inh>
11

$$$$
>  <Chemical Smiles>
CNc1nccc(-c2ccc3c(N)n[nH]c3c2)n1

>  <Measurement Unit>
%

>  <%Inh>
1

$$$$

Moving on to another compound below.
GET /values?readout=%Inh&item= N#CC1(c2cccc(C(=O)Nc3cccc(Oc4ccc5nc(NC(=O)C6CC6)sc5n4)c3)c2)CC1
0

* * *

# Test system: MAP4K3
# Measurement Parameters: concentration: 1 μM, replicates: in singlicate; n = 1
Entries and their measured %Inh follow.
Number in %, nothing else.

Below: 6 molecules and their reported %Inh.
>  <Molecule>
COc1cccc2c(-c3ccncc3)c(-c3ccc(F)cc3)nn12

>  <Recorded Number>
0

$$$$
>  <Molecule>
O=C(O)C(F)(F)F.O=c1[nH]ccc2nc(N[C@@H]3CCNC3)nc(Nc3cc(Cl)cc(Cl)c3)c12

>  <Recorded Number>
77

$$$$
>  <Molecule>
CC(C)c1nc(-c2cccc(NS(=O)(=O)c3c(F)cccc3F)c2)c(-c2ccnc(Nc3ccc(N4CCOCC4)nc3)n2)s1.Cl

>  <Recorded Number>
47

$$$$
>  <Molecule>
Cl.Cl.NCC(NC(=O)c1cc(-c2cccnc2)c(-c2ccnc3[nH]ccc23)s1)c1ccccc1 (centres unmarked)

>  <Recorded Number>
0

$$$$
>  <Molecule>
O=C(Nc1n[nH]c2cc(-c3cccs3)ccc12)C1CC1

>  <Recorded Number>
0

$$$$
>  <Molecule>
CNc1nccc(-c2ccc3c(N)n[nH]c3c2)n1

>  <Recorded Number>
0

$$$$

Moving on to another molecule below.
GET /values?readout=%Inh&item= Cc1ccc(O)cc1Nc1ccnc2cc(-c3ccc(CN4CCCCC4)o3)ccc12
0
